Reference for the values: PubChem BioAssay (Tox21)

- TEST METHOD NOTES: A CellTox Green Cytotoxicity Assay to monitor cytotoxicity in HEK293 cells - 24 hour (AID 1224875); note: nearly all actives have a fitted effect of over 45% in size
- ASSAY CONDITIONS: CellTox Green fluorescence; series mostly up to 76.8 µM
Records with an inconclusive call do not appear. Active and inactive are the calls of the source. Calls come from the whole dose curve; as a rule, active = well fitted activation curve with a large enough effect in the repeat runs; inconclusive = weak or mixed curves; inactive = flat fitted curve, though single readings scatter.
Classes used: active, inactive

[
  {
    "COMPOUND": "CCCC(=O)OCC(COC(=O)CCC)OC(=O)CCC",
    "ASSIGNED LABEL": "inactive"
  },
  {
    "COMPOUND": "O=C1NC2CCCCN2C12CCN(CCCN1c3ccccc3CCc3ccc(Cl)cc31)CC2 (stereo not drawn)",
    "ASSIGNED LABEL": "active"
  },
  {
    "COMPOUND": "CC(C)=CCCC(C)CCOC(=O)C(C)C (stereo not drawn)",
    "ASSIGNED LABEL": "inactive"
  },
  {
    "COMPOUND": "CCCCCCCCCCCCCC[n+]1ccccc1",
    "ASSIGNED LABEL": "active"
  },
  {
    "COMPOUND": "C=CC(=O)OCC(O)COc1ccccc1 (stereo not drawn)",
    "ASSIGNED LABEL": "inactive"
  },
  {
    "COMPOUND": "CCC1CCCCC1",
    "ASSIGNED LABEL": "inactive"
  },
  {
    "COMPOUND": "Clc1ccc(C(c2ccccc2Cl)C(Cl)Cl)cc1 (stereo not drawn)",
    "ASSIGNED LABEL": "inactive"
  },
  {
    "COMPOUND": "COc1ccc(C#N)cc1",
    "ASSIGNED LABEL": "inactive"
  },
  {
    "COMPOUND": "C[C@H]1O[C@@H](O[C@H]2[C@@H](O)C[C@H](O[C@H]3[C@@H](O)C[C@H](O[C@H]4CC[C@@]5(C)[C@H](CC[C@@H]6[C@@H]5C[C@@H](O)[C@]5(C)[C@@H](C7=CC(=O)OC7)CC[C@]65O)C4)O[C@@H]3C)O[C@@H]2C)C[C@H](O)[C@@H]1O",
    "ASSIGNED LABEL": "inactive"
  },
  {
    "COMPOUND": "C/C=C/c1ccc(OC)c(OC)c1",
    "ASSIGNED LABEL": "inactive"
  },
  {
    "COMPOUND": "C=CC(C)C#N (stereo not drawn)",
    "ASSIGNED LABEL": "inactive"
  },
  {
    "COMPOUND": "Cc1cc(C)c(C=O)c(C)c1",
    "ASSIGNED LABEL": "inactive"
  },
  {
    "COMPOUND": "CC(C)c1ccccc1N",
    "ASSIGNED LABEL": "inactive"
  },
  {
    "COMPOUND": "COc1ccc(-n2nc(CCC(=O)N(C)O)cc2-c2ccc(Cl)cc2)cc1",
    "ASSIGNED LABEL": "inactive"
  },
  {
    "COMPOUND": "CCCCCCCCCCc1ccccc1",
    "ASSIGNED LABEL": "inactive"
  },
  {
    "COMPOUND": "CCCCCCCC(=O)OCC",
    "ASSIGNED LABEL": "inactive"
  },
  {
    "COMPOUND": "Cc1cccc(C)n1",
    "ASSIGNED LABEL": "inactive"
  },
  {
    "COMPOUND": "C#CC(O)CCC (stereo not drawn)",
    "ASSIGNED LABEL": "inactive"
  },
  {
    "COMPOUND": "CCO[Si](C)(C)OCC",
    "ASSIGNED LABEL": "inactive"
  },
  {
    "COMPOUND": "COc1cccc(OC)c1O",
    "ASSIGNED LABEL": "inactive"
  },
  {
    "COMPOUND": "O=C(O)CCCCCCC(=O)O",
    "ASSIGNED LABEL": "inactive"
  },
  {
    "COMPOUND": "O=C[C@H](O)[C@H](O)[C@H](O)CO",
    "ASSIGNED LABEL": "inactive"
  },
  {
    "COMPOUND": "CCN(CC)c1cccc(C)c1",
    "ASSIGNED LABEL": "inactive"
  },
  {
    "COMPOUND": "CCCSS/C(CCO)=C(\\C)N(C=O)Cc1cnc(C)nc1N",
    "ASSIGNED LABEL": "inactive"
  },
  {
    "COMPOUND": "CCCCCCCC/C=C\\CCCCCCCC(=O)NCc1ccc(O)c(OC)c1",
    "ASSIGNED LABEL": "inactive"
  },
  {
    "COMPOUND": "Clc1ccccc1CN1CCc2sccc2C1",
    "ASSIGNED LABEL": "inactive"
  },
  {
    "COMPOUND": "CCCCCCCOC(=O)c1ccccc1C(=O)OCCCCCCC",
    "ASSIGNED LABEL": "inactive"
  },
  {
    "COMPOUND": "O=Cc1ccc(F)cc1",
    "ASSIGNED LABEL": "inactive"
  },
  {
    "COMPOUND": "C=CC(=O)OCCC#N",
    "ASSIGNED LABEL": "inactive"
  },
  {
    "COMPOUND": "c1ccc2c(c1)CCC2",
    "ASSIGNED LABEL": "inactive"
  },
  {
    "COMPOUND": "Cc1oc(-c2ccccc2)nc1CCOc1ccc(C[C@H](Nc2ccccc2C(=O)c2ccccc2)C(=O)O)cc1",
    "ASSIGNED LABEL": "inactive"
  },
  {
    "COMPOUND": "CCCCCCCOC(=O)c1ccc(O)cc1",
    "ASSIGNED LABEL": "inactive"
  },
  {
    "COMPOUND": "O=CC1CC1",
    "ASSIGNED LABEL": "inactive"
  },
  {
    "COMPOUND": "CCCCOc1ccc(C(=O)CCN2CCCCC2)cc1",
    "ASSIGNED LABEL": "active"
  },
  {
    "COMPOUND": "CCCC(O)C(O)CO (stereo not drawn)",
    "ASSIGNED LABEL": "inactive"
  },
  {
    "COMPOUND": "CC(C)=C1CC[C@@H](C)CC1=O",
    "ASSIGNED LABEL": "inactive"
  },
  {
    "COMPOUND": "COC(=O)CC#N",
    "ASSIGNED LABEL": "inactive"
  },
  {
    "COMPOUND": "c1cc(OCC2CO2)cc(OCC2CO2)c1 (stereo not drawn)",
    "ASSIGNED LABEL": "inactive"
  },
  {
    "COMPOUND": "COC(=O)CC(C)CCC=C(C)C (stereo not drawn)",
    "ASSIGNED LABEL": "inactive"
  },
  {
    "COMPOUND": "CCc1cccc(CC)c1NC(=O)C(=O)O",
    "ASSIGNED LABEL": "inactive"
  },
  {
    "COMPOUND": "Clc1cccnc1",
    "ASSIGNED LABEL": "inactive"
  },
  {
    "COMPOUND": "C[Si](C)(C)Cl",
    "ASSIGNED LABEL": "inactive"
  },
  {
    "COMPOUND": "O=C(O)CCn1c2c(c3ccccc31)C[C@H](NS(=O)(=O)c1ccc(F)cc1)CC2",
    "ASSIGNED LABEL": "inactive"
  },
  {
    "COMPOUND": "O=C1c2c(O)ccc([N+](=O)[O-])c2C(=O)c2c([N+](=O)[O-])ccc(O)c21",
    "ASSIGNED LABEL": "inactive"
  },
  {
    "COMPOUND": "Cc1ccc2ccc3cccc4ccc1c2c34",
    "ASSIGNED LABEL": "inactive"
  },
  {
    "COMPOUND": "CCc1ccc(O)c(C(C)(C)C)c1",
    "ASSIGNED LABEL": "active"
  },
  {
    "COMPOUND": "CC(C)CCOCCC(C)C",
    "ASSIGNED LABEL": "inactive"
  },
  {
    "COMPOUND": "O[C@@H](c1cc(C(F)(F)F)nc2c(C(F)(F)F)cccc12)[C@H]1CCCCN1",
    "ASSIGNED LABEL": "active"
  },
  {
    "COMPOUND": "CCCCCCCCCCCCCOP(=O)(O)O",
    "ASSIGNED LABEL": "inactive"
  },
  {
    "COMPOUND": "CCNc1nc(NC(C)CC)nc(OC)n1 (stereo not drawn)",
    "ASSIGNED LABEL": "inactive"
  },
  {
    "COMPOUND": "CCC(C)c1ccccc1 (stereo not drawn)",
    "ASSIGNED LABEL": "inactive"
  },
  {
    "COMPOUND": "CN1[C@@H]2CC[C@H]1CC(OC(=O)C(CO)c1ccccc1)C2 (stereo partly drawn)",
    "ASSIGNED LABEL": "inactive"
  },
  {
    "COMPOUND": "SCCCCCCCCS",
    "ASSIGNED LABEL": "inactive"
  },
  {
    "COMPOUND": "CC(C)N=C(N)/N=C(\\N)Nc1ccc(Cl)cc1",
    "ASSIGNED LABEL": "inactive"
  },
  {
    "COMPOUND": "Cc1ccc(-n2[nH]c(C)c(N=Nc3cccc(-c4cccc(C(=O)O)c4)c3O)c2=O)cc1C",
    "ASSIGNED LABEL": "inactive"
  },
  {
    "COMPOUND": "CC[N+](CC)(CC)Cc1ccccc1",
    "ASSIGNED LABEL": "inactive"
  },
  {
    "COMPOUND": "CCCCCCCCC(C)=O",
    "ASSIGNED LABEL": "inactive"
  },
  {
    "COMPOUND": "CC1CCCNC1 (stereo not drawn)",
    "ASSIGNED LABEL": "inactive"
  }
]
